meta.source: paper PMC12381781

- TEST_TARGET: R2R3 (N279K) tau peptide (Homo sapiens, UniProt P10636, N596K)
- Sequence (P10636 592-653 N596K): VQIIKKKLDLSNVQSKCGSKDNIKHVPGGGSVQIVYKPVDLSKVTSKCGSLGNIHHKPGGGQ
- PROTOCOL: SPR titration cycle kinetics, immobilized R2R3 (N279K) peptide
- Type: binding
QUANTITY_MEASURED: Kd (µM)
Quick reminder: number only, in µM, skip the unit.

Could you share which Kd value was measured for `O=C1c2ccccc2C(=O)c2c(O)c(O)cc(O)c21` ?
4.22

----------
- TEST_TARGET: R2R3 (V287I) tau peptide (Homo sapiens, UniProt P10636, V604I)
- Sequence (P10636 592-653 V604I): as the sequence (P10636 592-653 N596K) above, with K5N, V13I counted along it
- PROTOCOL: SPR titration cycle kinetics, immobilized R2R3 (V287I) peptide
- Format: binding
- CONDITION_PARAMETERS: SPR, R2R3 V287I peptide immobilized, 25°C, PBS pH 7.4; read-out: KD
QUANTITY_MEASURED: pKd
Reminder that pKd is minus the log10 of a molar concentration.

Request the reported pKd associated with `C/C=C(/C=O)[C@@H](CC=O)CC(=O)OCCc1ccc(O)cc1`
5.69

----------
- TEST_TARGET: R2R3 (P301L) tau peptide (Homo sapiens, UniProt P10636, P618L)
- Sequence (P10636 592-653 P618L): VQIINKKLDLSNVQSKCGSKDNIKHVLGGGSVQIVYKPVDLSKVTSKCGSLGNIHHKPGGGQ
- PROTOCOL: SPR titration cycle kinetics, immobilized R2R3 (P301L) peptide
- Format: binding
- CONDITION_PARAMETERS: SPR, R2R3 P301L peptide immobilized, 25°C, PBS pH 7.4; read-out: KD
QUANTITY_MEASURED: pKd
Scale for pKd: -log10 of concentration given in mol/L; no unit attached.

Sample `C/C=C(/C=O)[C@@H](CC=O)CC(=O)OCCc1ccc(O)cc1` — what was its pKd?
5.80

----------
- TEST_TARGET: R2R3 (V287I) tau peptide (Homo sapiens, UniProt P10636, V604I)
- PROTOCOL: SPR titration cycle kinetics, immobilized R2R3 (V287I) peptide
- Format: binding
QUANTITY_MEASURED: pKd
Note on pKd: it is the negative log10 of concentration, concentration in mol/L.

Please give the measured pKd for this compound: O=C1c2ccccc2C(=O)c2c(O)c(O)cc(O)c21 [PUR, purpurin]
5.33

----------
- TEST_TARGET: R2R3 (N279K) tau peptide (Homo sapiens, UniProt P10636, N596K)
- PROTOCOL: SPR titration cycle kinetics, immobilized R2R3 (N279K) peptide
- Type: binding
- CONDITION_PARAMETERS: SPR, R2R3 N279K peptide immobilized, 25°C, PBS pH 7.4; read-out: KD
- Protocol: SPR experiments were conducted using the Sierra® SPR‐24 Pro system (Bruker Daltonics, Bremen, Germany), featuring a gold‐coated microfluidic array (24 detection spots, 3 × 8 format). […] PUR and OLC were prepared in PBS (pH 7.4) supplemented with 0.05% Tween‐20 and 5% DMSO. Compound interactions with tau peptides were pre‐screened using a concentration range of 1–100 μM, and subsequent binding kinetics were evaluated at optimized concentrations. […]
QUANTITY_MEASURED: Kd (nM)
Give the quantity in nM, number only.

Reported Kd, compound `C/C=C(/C=O)[C@@H](CC=O)CC(=O)OCCc1ccc(O)cc1` : ____
1980

----------
- TEST_TARGET: R2R3 (WT) tau peptide (Homo sapiens)
- Sequence (P10636 592-653 limits assumed): as the sequence (P10636 592-653 P618L) above, with L27P counted along it
QUANTITY_MEASURED: Kd (µM)
Numeric answer only, unit µM assumed.

Look at this compound and give its reported Kd. `O=C1c2ccccc2C(=O)c2c(O)c(O)cc(O)c21`
4.35
